assay: in vitro; conditions: human, Caco-2
quantity measured: Papp A→B at 2 h, 10 µM (×10⁻⁶ cm/s)

INSERT INTO results (smiles_string, quantitative_readout) VALUES
  ('CNC(=C[N+](=O)[O-])NCCSCc1ccc(CN(C)C)o1', 0.2);
